Parameter melting point: see the listing below.

O=C(CC1SC(NC2CC3C=CC2C3)=NC1=O)NCc1ccccc1 (centres unmarked) [Example 74]; 206 to 207 °C
O=C(CC1SC(NC2CC3C=CC2C3)=NC1=O)Nc1ccccc1 (centres unmarked) [Example 99]; 216 to 217 °C

Output melting point of COc1ccccc1OC(=O)CC1SC(NC2CC3C=CC2C3)=NC1=O (centres unmarked) [Example 281]
175 to 176 °C

Output melting point of O=C(CC1SC(NC2CC3C=CC2C3)=NC1=O)Nc1ccc(F)cc1 (centres unmarked) [Example 101]
215 °C

Output melting point of O=C(CC1SC(NC2CC3C=CC2C3)=NC1=O)Oc1ccccc1Cl (centres unmarked) [Example 279]
211 °C

Output melting point of O=C(CC1SC(NC2CC3C=CC2C3)=NC1=O)Nc1ccccc1C(=O)c1ccccc1 (centres unmarked) [Example 102]
191 to 192 °C

Output melting point of CNC(=O)CC1SC(NC2CC3C=CC2C3)=NC1=O (centres unmarked) [Example 105]
205 °C

Output melting point of CCNC(=O)CC1SC(NC2CC3C=CC2C3)=NC1=O (centres unmarked) [Example 104]
187 to 188 °C

* * *

Parameter melting point: see the listing below.
Numbers only here, please. The scale is °C.

Example results:
O=C(O)CC1SC(NC2CC3C=CC2C3)=NC1=O (stereo not drawn); 232
O=C(CC1SC(NC2CCCCC2)=NC1=O)Nc1ccccc1Cl (stereo not drawn); 183
O=C(CC1SC(NC2CC3C=CC2C3)=NC1=O)Nc1cccc(C(=O)O)c1 (stereo not drawn); 242

Shift focus to the following entry.
Output melting point of O=C(CC1SC(N2CCCCC2)=NC1=O)Nc1ccccc1Cl (stereo not drawn)
177

* * *

Parameter melting point: see the listing below.

Example results:
O=C(CC1SC(NC2CC3C=CC2C3)=NC1=O)c1ccc(Cl)cc1 (centres unmarked) [Example 283]; 244 to 245 °C
Cc1c(Cl)cccc1NC(=O)CC1SC(NC2CC3C=CC2C3)=NC1=O (centres unmarked) [Example 73]; 201 to 202 °C

Output melting point of O=C(CC1SC(NC2CC3C=CC2C3)=NC1=O)Nc1ccc2cn[nH]c2c1 (centres unmarked) [Example 100]
222 to 223 °C

Output melting point of O=C(CC1SC(NC2CC3C=CC2C3)=NC1=O)Oc1cccc(N2CCOCC2)c1 (centres unmarked) [Example 282]
203 to 204 °C

Output melting point of CN(C(=O)CC1SC(NC2CC3C=CC2C3)=NC1=O)c1ccccc1Cl (centres unmarked) [Example 107]
149 to 150 °C
